B1: TPR 5TU (parent)
chain: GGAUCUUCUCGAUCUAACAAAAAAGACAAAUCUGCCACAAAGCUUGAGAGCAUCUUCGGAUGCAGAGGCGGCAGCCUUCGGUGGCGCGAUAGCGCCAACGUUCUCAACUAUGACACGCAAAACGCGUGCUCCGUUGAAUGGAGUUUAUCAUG

# Variants of: B1
# assayInfo: polymerase ribozyme fitness, log enrichment relative to wild type (log ratio); higher = more active; in vitro selection for triplet polymerase activity
This sample holds only a part of the variants without activity.
metricName: polymerase ribozyme fitness (log ratio)

• C85A U144G = -0.777
• U55A A113C = -2.92
• G59A C132G U139C = -2.96

meta.source: the RNAGym collection of RNA variant scans (doi:10.1073/pnas.2313332121)
